Sourced from patent US6043254A

TARGET DESC: cycline D1/CDK4 (Homo sapiens, UniProt P11802)
Construct: His6
Sequence (P11802 whole entry): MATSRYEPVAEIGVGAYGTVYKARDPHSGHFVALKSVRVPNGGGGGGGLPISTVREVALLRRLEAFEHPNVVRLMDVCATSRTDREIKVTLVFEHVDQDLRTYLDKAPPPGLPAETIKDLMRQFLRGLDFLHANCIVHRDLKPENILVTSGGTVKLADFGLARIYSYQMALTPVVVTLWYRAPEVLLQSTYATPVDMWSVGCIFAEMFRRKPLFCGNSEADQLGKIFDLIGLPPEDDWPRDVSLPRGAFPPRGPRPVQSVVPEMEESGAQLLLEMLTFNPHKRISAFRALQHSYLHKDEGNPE
Sequence (P24385 whole entry partner): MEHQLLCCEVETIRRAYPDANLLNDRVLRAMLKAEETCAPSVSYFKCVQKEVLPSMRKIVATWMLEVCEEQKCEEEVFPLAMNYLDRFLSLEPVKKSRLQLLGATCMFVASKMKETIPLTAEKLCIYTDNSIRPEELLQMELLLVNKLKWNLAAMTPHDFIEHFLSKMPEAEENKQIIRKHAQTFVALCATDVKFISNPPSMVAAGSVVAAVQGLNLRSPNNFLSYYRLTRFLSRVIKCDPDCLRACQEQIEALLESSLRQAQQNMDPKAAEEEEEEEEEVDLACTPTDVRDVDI
TEST SUMMARY: Test 1: inhibition of cycline/CDK enzyme in vitro activity
SETTINGS: GST-tagged pRB substrate; 45 minutes at 30° C.; 1% DMSO
Excerpt: Inhibition of cycline/CDK Enzyme in vitro Activity High Five™ insect cells (BTI-TN-5B1-4) which had been infected with a high titre of recombinant baculovirus were used to produce active human cycline/CDK holoenzymes. By using a baculovirus vector which contained two promoters (polyhedrin enhancer promoter, P10 enhancer promoter), GST-tagged cyclines (e.g. cycline D1 or cycline D3) with the corresponding His6 -tagged CDK subunit (e.g. for CDK4 or CDK6) were expressed in the same cell. […]
pIC50: −log10 of the molar value.

COMPOUND STRUCTURE STRING: CC(=O)N1CCc2cc(N/C(=C3\C(=O)Nc4ccc([N+](=O)[O-])cc43)c3ccccc3)ccc2C1
TARGET DESC: cycline D1/CDK4 (Homo sapiens, UniProt P11802)
pIC50: 5.85
--
COMPOUND STRUCTURE STRING: O=C1Nc2ccc([N+](=O)[O-])cc2/C1=C(/Nc1ccc(-c2c[nH]cn2)cc1)c1ccccc1
TARGET DESC: cycline D1/CDK4 (Homo sapiens, UniProt P11802)
pIC50: 6.00
--
COMPOUND STRUCTURE STRING: O=C1Nc2ccc([N+](=O)[O-])cc2/C1=C(/Nc1ccc2c(c1)CCNC2)c1ccccc1
TARGET DESC: cycline D1/CDK4 (Homo sapiens, UniProt P11802)
pIC50: 6.82
--
COMPOUND STRUCTURE STRING: O=C1Nc2ccc([N+](=O)[O-])cc2/C1=C(/Nc1ccc(CCN2CCCC2)cc1)c1ccccc1
TARGET DESC: cycline D1/CDK4 (Homo sapiens, UniProt P11802)
pIC50: 7.26
